Assay: protein stability index of a GFP-peptide fusion (yeast GPS) (PSI 1-4); higher = more stable; sorted into four equal gates, so the index is relative within each strain
Settings: ubr1∆
So basically: protein stability index at 3 or higher? That is y. Lower than 3? That is n.

[[record]]
biosequence = "LIQLGVKPLESSAKRSK [SRP72]"
qualitative_label = "n"

[[record]]
biosequence = "GNSESKVEKGVNIEPFN [LIN1]"
qualitative_label = "y"

[[record]]
biosequence = "INNLPPEKEASSATIVL [YCG1]"
qualitative_label = "n"


Kindly review the next sequence as well.
Query block: Given the entry SMILIQQTEKLNPQVAD [RPN2] , answer whether its protein stability index meets or surpasses 3.
Result block: n

----------
Assay: protein stability index of a GFP-peptide fusion (yeast GPS) (PSI 1-4); higher = more stable; sorted into four equal gates, so the index is relative within each strain
Conditions: doa10∆
recorded endpoint: protein stability index
Returns: the value as a bare number; no unit string appended.

Below: 5 sequences and their reported protein stability index.
[[record]]
biosequence = "NNVAYGKKRFRVVTVDG [SMC4]"
recorded_endpoint = "protein stability index"
reported = 1.93

[[record]]
biosequence = "WNSLMYALQSVKLPRAF [RRP43]"
recorded_endpoint = "protein stability index"
reported = 1.31

[[record]]
biosequence = "DGTAQLSNNKTDEEEQL [YJR042W/NUP85]"
recorded_endpoint = "protein stability index"
reported = 2.77

[[record]]
biosequence = "LELTTGATYRGKLVESE [SMD3]"
recorded_endpoint = "protein stability index"
reported = 3.29

[[record]]
biosequence = "VKNNQELDQEYRSCETQ [SMC4]"
recorded_endpoint = "protein stability index"
reported = 2.95


Query block: // query protein stability index value for entry NNMLYPREDKENNRLLF [RPB9]
Result block: 3.13

Query block: Any idea what protein stability index was measured for VLPLGSVPEGTIVSNVE [RPL2A] ?
Result block: 3.19

Query block: May I ask what protein stability index has been recorded for EFLKWTPNVNVLVLHGD [ISW2] ?
Result block: 1.69

Query block: Quick one: protein stability index of VARTFWASKYGQEYPRI [BRR2] ?
Result block: 2.42

Query block: Looking for the measured protein stability index of DEVITEGQADIDMESDV [POP7] , can you help?
Result block: 3.18

Query block: So what does the record say about protein stability index for ENDLLQEFDSELSKEEK [SMC3] ?
Result block: 2.74

Query block: Which measured protein stability index value corresponds to APLAKVVFRDPYKYRLR [RPL2A] ?
Result block: 2.93

Query block: Find the recorded protein stability index belonging to NDLRDMILNYNPSQGVS [UBP6] and report it.
Result block: 2.21

Query block: What protein stability index value was documented for this sequence, MEQCKQRYQDLSQQQKD [YIL149C/MLP2] ?
Result block: 3.33

Query block: Can you share its protein stability index? I mean this sequence: AAIWTLCKTKMVCETDV [RPO21]
Result block: 1.55

Query block: Please report the recorded protein stability index for RQLTSMEFSNLYKEFFN [NUT1] .
Result block: 2.48

Query block: What protein stability index value was documented for this sequence, SPSEFVDVAIPCNNRGK [RPS0A] ?
Result block: 1.74

----------
Experiment: protein stability index of a GFP-peptide fusion (yeast GPS) (PSI 1-4); higher = more stable; sorted into four equal gates, so the index is relative within each strain
Conditions: doa10∆
Measured protein stability index of individual entries
Please reply with the value in numeric form only.

Examples with answers:
[[record]]
biosequence = "KKCIDFFEMLISKSLTF [RRI2]"
recorded_endpoint = "protein stability index"
reported = 2.13

[[record]]
biosequence = "LGPRGVSITPGKIEKIA [SRP21]"
recorded_endpoint = "protein stability index"
reported = 2.02

[[record]]
biosequence = "DKNSGVKSEVDVQVDAE [ITC1]"
recorded_endpoint = "protein stability index"
reported = 2.1

[[record]]
biosequence = "SKVIIKFLQVMQKHGYI [RPS22A]"
recorded_endpoint = "protein stability index"
reported = 1.95

[[record]]
biosequence = "SKRLPLRFPEHTSSGSV [BRR2]"
recorded_endpoint = "protein stability index"
reported = 2.9


Query block: Could you tell me which protein stability index is on file for YEKNFEATLESKLKEEE [ESC2] ?
Result block: 3.09

Query block: Entry under review: KPGRMPFNFTVTLFQMA [CDC53] . Reported protein stability index?
Result block: 1.65

Query block: What does the record list as protein stability index for HFVQEEPLAFYLEESFT [RGR1] ?
Result block: 2.32

----------
Test: protein stability index of a GFP-peptide fusion (yeast GPS) (PSI 1-4); higher = more stable; sorted into four equal gates, so the index is relative within each strain
Settings: pdr5∆
protein stability index overview
Respond numerically, and do not add a unit to the figure.

Query block: Please give the measured protein stability index for this sequence: DHSWFLLIGCKLDQDDE [CSI1]
Result block: 1.95

Query block: Query (sequence): SDFISKLEYPHTDVSSS [RPN3] ; field requested: protein stability index
Result block: 2.88

Query block: Recorded protein stability index of ELESITESITHDSSNGL [NUT1] , please.
Result block: 3.27

----------
Reported protein stability index by item:
Assay: protein stability index of a GFP-peptide fusion (yeast GPS) (PSI 1-4); higher = more stable; sorted into four equal gates, so the index is relative within each strain
Settings: san1∆
Could you respond with only the numeric value?

Some sequences with recorded protein stability index:
[[record]]
biosequence = "PSENDVFYRMQQLRRAL [RPO31]"
recorded_endpoint = "protein stability index"
reported = 2.5

[[record]]
biosequence = "VDDSMELCGQIRSERFK [ITC1]"
recorded_endpoint = "protein stability index"
reported = 3.28

[[record]]
biosequence = "QYSLERNSPFWWTNSHH [PRP8]"
recorded_endpoint = "protein stability index"
reported = 2.4

[[record]]
biosequence = "DYMYENGKLTSANERLF [YML031W/NDC1]"
recorded_endpoint = "protein stability index"
reported = 3.1

[[record]]
biosequence = "SIGKNPFNKPNIETGEN [SWI3]"
recorded_endpoint = "protein stability index"
reported = 2.87


Query block: Please look up its protein stability index: EVTDKNYYYLFDKKSFF [PRP8]
Result block: 2.9

Query block: Suppose we examine the sequence FDVNNIDMHLIYGVEWL [YDL116W/NUP84] ; what protein stability index value has been reported?
Result block: 1.92

----------
Experiment: protein stability index of a GFP-peptide fusion (yeast GPS) (PSI 1-4); higher = more stable; sorted into four equal gates, so the index is relative within each strain
Settings: ubr1∆
recorded endpoint: protein stability index
Would you mind answering with just the numeric figure?

Query block: Fill in the blank: the reported protein stability index of SIQDTSTVAKNVSFVLP [YCG1] is ____.
Result block: 3.04

Query block: Query: protein stability index; subject: QNIILRSTMMKFLKIAS [RPN3]
Result block: 3.03

Query block: Form field: reported protein stability index of ETAKMIENMTKEKVSNG [FAS2]
Result block: 3.02

Query block: What does the data say about its protein stability index? Entry: TSVIQDLSEKILNDIET [BRR2]
Result block: 3.09

----------
Test: protein stability index of a GFP-peptide fusion (yeast GPS) (PSI 1-4); higher = more stable; sorted into four equal gates, so the index is relative within each strain
Settings: doa10∆
recorded endpoint: protein stability index
Enter a number only.

[[record]]
biosequence = "HDFIKGLIMLNLQPASV [NUT1]"
recorded_endpoint = "protein stability index"
reported = 1.83


Query block: Dear colleague, I am looking for the recorded protein stability index of the following sequence: DAELMADEEEEIVDTYQ [ISW2]
Result block: 1.32

Query block: Endpoint output: protein stability index of EEDISDLWNNFGNIMDN [RRP6] . Value?
Result block: 3.13

----------
Assay: protein stability index of a GFP-peptide fusion (yeast GPS) (PSI 1-4); higher = more stable; sorted into four equal gates, so the index is relative within each strain
Conditions: san1∆
recorded endpoint: protein stability index
Lab note: record just the number, no unit beside it.

[[record]]
biosequence = "TSILELGQLYVTMGAKD [RPN6]"
recorded_endpoint = "protein stability index"
reported = 2.96

[[record]]
biosequence = "SNTTTHVPEKKSTDLTP [MTR3]"
recorded_endpoint = "protein stability index"
reported = 2.15


Query block: For the sequence PEKKEMIQEVIVEEDLE [FAS2] , what protein stability index is on record?
Result block: 3.35

Query block: Which value of protein stability index has been reported for IAKFERSEEEVTKLNVL [YIL149C/MLP2] in the records?
Result block: 3.31

Query block: Requested field: protein stability index. Item: IEQEKQEQQEQDKKKKS [PRE6]
Result block: 2.59

Query block: // returns reported protein stability index for input EWKSEFVVPTFGQDVSP [SNM1]
Result block: 3.04

Query block: So what does the record say about protein stability index for GKEFGTTPEKPEETPLE [FAS2] ?
Result block: 2.6
